biological target: PleD (PleDCC) (Caulobacter vibrioides, UniProt B8GZM2); construct: full-length D1-D2-DGC, His-tagged, pET11b-pleD, E. coli BL21(DE3), Ni-NTA and SEC; unphosphorylated; test: ITC; type: binding
Sequence (B8GZM2 whole entry): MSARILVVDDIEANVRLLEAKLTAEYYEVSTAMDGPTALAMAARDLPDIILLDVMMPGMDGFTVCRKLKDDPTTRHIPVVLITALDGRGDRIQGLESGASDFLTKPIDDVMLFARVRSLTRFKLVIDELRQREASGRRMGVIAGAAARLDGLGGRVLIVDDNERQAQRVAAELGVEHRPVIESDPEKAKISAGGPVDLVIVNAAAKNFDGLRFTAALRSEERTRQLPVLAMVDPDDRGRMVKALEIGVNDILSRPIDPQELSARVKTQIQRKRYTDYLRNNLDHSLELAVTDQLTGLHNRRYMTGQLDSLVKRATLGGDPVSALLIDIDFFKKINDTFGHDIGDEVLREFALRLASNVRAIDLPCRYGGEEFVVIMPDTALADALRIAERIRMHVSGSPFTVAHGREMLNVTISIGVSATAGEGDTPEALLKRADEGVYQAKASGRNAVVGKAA
Overview of recorded Kd for various compounds
PROPERTY NAME: Kd (µM)

Nc1nc2c(ncn2[C@@H]2O[C@H](COP(=O)(O)OP(=O)(O)OP(=O)(O)O)[C@@H](OP(=O)(O)OP(=O)(O)O)[C@H]2O)c(=O)[nH]1 = 9.31
Nc1nc2c(ncn2[C@@H]2O[C@H](COP(=O)(O)CP(=O)(O)OP(=O)(O)O)[C@@H](O)[C@H]2O)c(=O)[nH]1 = 6.01
Nc1nc2c(ncn2[C@@H]2O[C@H](COP(=O)(O)OP(=O)(O)O)[C@@H](OP(=O)(O)OP(=O)(O)O)[C@H]2O)c(=O)[nH]1 = 45.4
